tested on: S. aureus (MRSA) -400; experiment: Anti-bacterial activity test 1: minimum growth inhibiting concentration (MIC); format: cell-based; conditions: Staphylococcus aureus, strain -400 (PRC series), read-out: Anti-bacterial activity against MRSA MIC
outcomeMeasure: MIC (µg/mL)

Some solved cases for reference:
> print(dat)
                                   compound  outcomemeasure  observedresult
1  Clc1ccc(COC(Cn2ccnc2)c2ccccc2Cl)cc1 (centres unmarked) [o-Cl, H, p-Cl, H]             MIC            12.5
2  Clc1ccc(C(Cn2ccnc2)OCc2ccccc2Cl)cc1 (centres unmarked) [p-Cl, H, o-Cl, H]             MIC              25

[A] Clc1ccccc1COC(Cn1ccnc1)c1ccccc1Cl (centres unmarked) [o-Cl, H, o-Cl, H]
[B] Clc1ccccc1C(Cn1ccnc1)OCc1ccccc1 (centres unmarked) [o-Cl, H, H, H]
Please indicate which entry, A or B , has the lower recorded MIC value. Provide the label of your selected option as the answer. A
